- test.details: activity coefficient (dimensionless); of the first substance listed, at infinite dilution; xn = mol fraction of the nth substance listed
- stated.conditions: 322.65 K; Liquid; Chromatography; x1 = 0
measured.property: activity coefficient
Please reply with the number alone, leaving off any unit.

Here is how some compounds turned out for activity coefficient.
compound	number
CO [methanol] + CCCCCC[N+](C)(C)C.O=S(=O)([N-]S(=O)(=O)C(F)(F)F)C(F)(F)F	1.16
CCC=O [propanal] + CCn1cc[n+](C)c1.N#CN=C=[N-]	1.4
CCOC(C)=O [ethyl acetate] + CCCCCC[N+](C)(C)C.O=S(=O)([N-]S(=O)(=O)C(F)(F)F)C(F)(F)F	0.72
ClC(Cl)(Cl)Cl [tetrachloromethane] + CCn1cc[n+](C)c1.N#CN=C=[N-]	4.49
C1CCCCCC1 [cycloheptane] + CCCCCC[N+](C)(C)C.O=S(=O)([N-]S(=O)(=O)C(F)(F)F)C(F)(F)F	14.3
CCC[N+](=O)[O-] [1-nitropropane] + CCn1cc[n+](C)c1.N#CN=C=[N-]	1.51
C#CCCCC [1-hexyne] + CCn1cc[n+](C)c1.N#CN=C=[N-]	8.7
CCOCC [diethyl ether] + CCn1cc[n+](C)c1.N#CN=C=[N-]	9.88

Input line: For the compound ClC(Cl)Cl [trichloromethane] + CCn1cc[n+](C)c1.N#CN=C=[N-] , give its reported activity coefficient.
Output line: 0.76

Input line: For the compound ClCCl [dichloromethane] + CCn1cc[n+](C)c1.N#CN=C=[N-] , give its reported activity coefficient.
Output line: 0.67

Input line: For the compound c1ccsc1 [thiophene] + CCn1cc[n+](C)c1.N#CN=C=[N-] , give its reported activity coefficient.
Output line: 1.6

Input line: For the compound CCC(C)=O [butanone] + CCCCCC[N+](C)(C)C.O=S(=O)([N-]S(=O)(=O)C(F)(F)F)C(F)(F)F , give its reported activity coefficient.
Output line: 0.422

----------
- test.details: activity coefficient (dimensionless); of the first substance listed, at infinite dilution; xn = mol fraction of the nth substance listed
- stated.conditions: 322.65 K; Liquid; Chromatography; x1 = 0
measured.property: activity coefficient
Please reply with the number alone, leaving off any unit.

molecule	number
CCCCCCCCCCCCCC [tetradecane] + CCCCCC[N+](C)(C)C.O=S(=O)([N-]S(=O)(=O)C(F)(F)F)C(F)(F)F	159

Now turn to the next molecule.
Input line: For the molecule CCN(CC)CC [triethylamine] + CCn1cc[n+](C)c1.N#CN=C=[N-] , give its reported activity coefficient.
Output line: 9.09

----------
- test.details: activity coefficient (dimensionless); of the first substance listed, at infinite dilution; xn = mol fraction of the nth substance listed
- stated.conditions: 352.65 K; Liquid; Chromatography; x1 = 0
Catalogue of activity coefficient values
Please reply with the number alone, leaving off any unit.

Here is how some compounds turned out for activity coefficient.
compound	activity coefficient
Cc1cccc(C)c1 [1,3-dimethylbenzene] + CCCCCC[N+](C)(C)C.O=S(=O)([N-]S(=O)(=O)C(F)(F)F)C(F)(F)F	1.89
Cc1ccc(C)cc1 [1,4-dimethylbenzene] + CCCCCC[N+](C)(C)C.O=S(=O)([N-]S(=O)(=O)C(F)(F)F)C(F)(F)F	1.86
CCc1ccccc1 [ethylbenzene] + CCCCCC[N+](C)(C)C.O=S(=O)([N-]S(=O)(=O)C(F)(F)F)C(F)(F)F	1.97
c1ccncc1 [pyridine] + CCCCCC[N+](C)(C)C.O=S(=O)([N-]S(=O)(=O)C(F)(F)F)C(F)(F)F	0.607
CCCCO [butan-1-ol] + CCCCCC[N+](C)(C)C.O=S(=O)([N-]S(=O)(=O)C(F)(F)F)C(F)(F)F	1.74
CC#N [acetonitrile] + CCCCCC[N+](C)(C)C.O=S(=O)([N-]S(=O)(=O)C(F)(F)F)C(F)(F)F	0.465

Input line: For the compound C[N+](=O)[O-] [nitromethane] + CCCCCC[N+](C)(C)C.O=S(=O)([N-]S(=O)(=O)C(F)(F)F)C(F)(F)F , give its reported activity coefficient.
Output line: 0.568
